target: Bifunctional 3'-5' exonuclease/ATP-dependent helicase WRN (Homo sapiens); assay: ADP-Glo Kinase Assay
Sequence (Q14191 whole entry): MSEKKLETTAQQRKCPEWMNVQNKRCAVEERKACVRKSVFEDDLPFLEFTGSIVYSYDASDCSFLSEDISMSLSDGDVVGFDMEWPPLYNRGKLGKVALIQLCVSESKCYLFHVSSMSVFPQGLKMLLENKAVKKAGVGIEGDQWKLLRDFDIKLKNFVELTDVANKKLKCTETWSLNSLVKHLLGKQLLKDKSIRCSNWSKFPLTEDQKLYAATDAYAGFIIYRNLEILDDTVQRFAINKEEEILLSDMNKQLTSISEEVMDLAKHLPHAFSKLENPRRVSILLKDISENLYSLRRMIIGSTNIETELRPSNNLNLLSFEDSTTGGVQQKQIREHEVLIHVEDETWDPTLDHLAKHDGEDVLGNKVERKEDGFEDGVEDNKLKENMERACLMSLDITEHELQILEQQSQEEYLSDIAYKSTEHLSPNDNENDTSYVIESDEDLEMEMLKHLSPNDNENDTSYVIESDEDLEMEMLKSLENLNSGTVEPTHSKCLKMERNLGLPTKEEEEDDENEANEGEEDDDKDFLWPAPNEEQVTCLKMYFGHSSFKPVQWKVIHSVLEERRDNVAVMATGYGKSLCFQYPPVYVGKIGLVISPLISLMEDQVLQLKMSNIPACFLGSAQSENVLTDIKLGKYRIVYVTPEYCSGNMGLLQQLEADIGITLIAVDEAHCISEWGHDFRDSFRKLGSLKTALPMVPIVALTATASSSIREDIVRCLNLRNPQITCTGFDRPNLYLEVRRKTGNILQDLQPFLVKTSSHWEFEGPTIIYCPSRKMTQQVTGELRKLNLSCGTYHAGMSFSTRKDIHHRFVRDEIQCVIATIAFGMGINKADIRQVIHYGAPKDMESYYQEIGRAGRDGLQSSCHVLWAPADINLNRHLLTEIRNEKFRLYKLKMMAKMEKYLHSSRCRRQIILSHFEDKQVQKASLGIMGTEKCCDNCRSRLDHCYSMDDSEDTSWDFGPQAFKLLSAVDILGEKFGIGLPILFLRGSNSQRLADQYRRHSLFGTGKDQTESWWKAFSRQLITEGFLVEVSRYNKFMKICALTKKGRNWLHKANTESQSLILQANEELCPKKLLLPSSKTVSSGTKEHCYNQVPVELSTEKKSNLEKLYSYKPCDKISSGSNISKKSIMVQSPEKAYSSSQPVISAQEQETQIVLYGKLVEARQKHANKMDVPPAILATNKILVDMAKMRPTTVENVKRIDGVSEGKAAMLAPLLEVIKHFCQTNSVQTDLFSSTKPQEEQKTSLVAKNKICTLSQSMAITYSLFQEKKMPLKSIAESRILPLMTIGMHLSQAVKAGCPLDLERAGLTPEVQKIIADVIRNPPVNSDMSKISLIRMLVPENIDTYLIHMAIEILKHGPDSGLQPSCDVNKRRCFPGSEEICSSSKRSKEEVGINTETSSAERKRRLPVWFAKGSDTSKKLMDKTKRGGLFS
Quick reference for log10 IC50 among some compounds
A value of 2 here means IC50 of 100 in nM, since values are log10.

Some compounds with known log10 IC50 results, for comparison:
# compound, experimentalResult
rows = [
    ("CCc1c(N2CCN(C(=O)c3ncnc(C)c3O)CC2)c(=O)n2nc(-c3ccc4c(c3)CC[C@H]4OC)nc2n1CC(=O)Nc1ccc(C(F)(F)F)cc1Cl [WO2025049746, Example 208]", 1.59),
    ("CCc1c(N2CCN(C(=O)c3ncnc(C)c3O)CC2)c(=O)n2c(C)c(-c3ccc4c(c3)COC4)nc2n1CC(=O)Nc1ccc(C(F)(F)F)cc1Cl [WO2025049746, Example 451]", 3.84),
    ("CCc1c(N2CCN(C(=O)c3ccccc3NS(=O)(=O)C3CC3)CC2)c(=O)n2nc(N(C)C)nc2n1CC(=O)Nc1ccc(C(F)(F)F)c2c1CC2 [WO2025049746, Example 105]", 2.45),
    ("CCc1c(N2CCN(C(=O)c3nc4n(c(=O)c3O)CCOC4)CC2)c(=O)n2nc(C3=CCOCC3)nc2n1CC(=O)Nc1ccc(C(F)(F)F)cc1Cl [WO2025049746, Example 32]", 1.47),
]

Noted for CCc1c(N2CCN(C(=O)c3ncnc(C)c3O)CC2)c(=O)n2nc(C3=CCOCC3)nc2n1CC(=O)NC12CC(C34CC(C(C)(F)F)(C3)C4)(C1)C2 [WO2025049746, Example 354] : its log10 IC50 reads 4.47

Cited source for all entries: BindingDB's records for patent WO2025049746
